// provenance: the supplement of paper PMC10567573

- Assay explanation: protein stability index of a GFP-peptide fusion (GPS, HEK-293T) (PSI 1-6); higher = more stable;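 further: 24-mer peptide tiles fused after GFP, lentivirally expressed, FACS-sorted into six equal bins by GFP/DsRed ratio, decoded by Illumina sequencing, PSI is the read-weighted mean bin number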
- Run conditions: treatment: MLN4924 1 uM, 8 h; c terminus: a fixed tail appended
Consider the following sequences and their measured protein stability index readings.
Response field accepts a number only; no unit should be typed.

Past entries and their recorded results:
// field: protein stability index; key: LYFQWYIFYFVIQRKKWVDLAWMI [FADS1] ; value = 3.09

// field: protein stability index; key: METFDPTELPELLKLYYRRLFPYS [PRIM1] ; value = 2.38

// field: protein stability index; key: FLLCARSLLRGFLLQNEFVGFMWR [MCOLN1] ; value = 2.39

Others:
// field: protein stability index; key: MLEASEWATIEGLVELLQPFKQVA [ZBED1] ; value = 2.27

// field: protein stability index; key: TSSLFRTEPMAWNETADLGLDIGA [CTNNB1] ; value = 3.82

// field: protein stability index; key: SHLLVVEPEKLYAMPDPAGPDGHL [ESRRA] ; value = 3.82

// field: protein stability index; key: CHLTPSIYTEFPDETLRSGELLNM [INTS3] ; value = 2.99

// field: protein stability index; key: HHSLASSLRSHHTHPSYGPPGVPP [DVL3] ; value = 3.58

// field: protein stability index; key: HQEGAKMAVRLAGGLQKMVALLNK [CTNNB1] ; value = 2.42

* * *

Consider the following sequences and their measured protein stability index readings.
- Assay explanation: protein stability index of a GFP-peptide fusion (GPS, HEK-293T) (PSI 1-6); higher = more stable
- Run conditions: treatment: DMSO; c terminus: a fixed tail appended
Response field accepts a number only; no unit should be typed.

Past entries and their recorded results:
// field: protein stability index; key: LESTLAETEARYSSQLAQMQCLIS [KRT36] ; value = 3.08

// field: protein stability index; key: KVKVPQKTAGKENHFDMHRVGKWH [ZNF75A] ; value = 2.87

// field: protein stability index; key: CSQGQQLATFSSDWEIQEDSRLMC [CCDC3] ; value = 3.16

// field: protein stability index; key: TVHEVDIFRCFCPVFLHSQMLWEL [DENND6A] ; value = 2.89

// field: protein stability index; key: VKVLAGQEYAAKIINTKKLSARDH [CAMK2A] ; value = 3.15

// field: protein stability index; key: GRSFREEQCVSFNSHVYNGRTHQW [ADAMTSL2] ; value = 3.05

// field: protein stability index; key: LASARIIEQDAVVPSEWLSSVYKQ [GMCL1] ; value = 3.31

// field: protein stability index; key: CESDIWALGCVMYTMLLGRPPFET [PLK2] ; value = 3.72

// field: protein stability index; key: FDNPQVRFFLGDLCSRQDLYPALK [NSDHL] ; value = 2.35

// field: protein stability index; key: TPLQQVSIEEILEEQRVEQQTKLE [LSM1] ; value = 5.37

Others:
// field: protein stability index; key: LNFCGPNVINHFYCDLPQLFQLSC [OR3A1] ; value = 2.83

// field: protein stability index; key: ADLRTNHTLNNLVEKLLREEAEGA [TRIM35] ; value = 4.32

// field: protein stability index; key: IHLDPRTREGFTLLHLAVNSNTPV [FEM1B] ; value = 2.24

// field: protein stability index; key: FFIRTSDSFDKFDFCEPSFVTGNC [PCMTD2] ; value = 2.52

// field: protein stability index; key: PPPPPGLPSDGDHQVPTTAGNKAA [WASL] ; value = 5.46

// field: protein stability index; key: EMSLAEELNHGRQGENQEHLVIAE [FATE1] ; value = 5.44

// field: protein stability index; key: TLLPASLFVNSHPGIDRPGMLCSF [DCAF4] ; value = 2.31

// field: protein stability index; key: PGNGTHGLSPEEKEQLSNDRETQE [ELOA2] ; value = 5.73
